Experiment: Stability in CD-1 mouse liver homogenate assessed as half life at 1 uM measured upto 240 mins by LC-MS/MS analysis
Format: ADME, tissue-based
Provide the reported half-life at 1 µM of each item.
One number for each entry, in h.

N[C@@H](CNC(=O)N[C@@H](CS)C(=O)NCC(=O)O)C(=O)O    0.02

Here is another compound to look at.
[Q] Look at this compound and give its reported half-life at 1 µM. "N[C@@H](CNC(=O)N1CSC[C@H]1C(=O)NCC(=O)O)C(=O)O"
[A] 116
